- Test Protocol: In vivo pharmacokinetic studies of CT-179 in mice, plasma and brain
- Set-up: species or system mice (C57Bl/J6)
- Reported Conditions: mouse, brain; 4 hours after single PO dose, 20 mg/kg; read-out: brain to plasma (B/P) ratio, average
Readout Kind: Kp at 4 h
// keep it numeric: no unit symbol after the value

Record summary for `Cc1cc(NCCCN(C)C)nc(NC(=O)Nc2ccc(Cl)c(Cl)c2)n1` : reported Kp at 4 h = 6.72

----------
- Test Protocol: In vivo pharmacokinetic studies of CT-179 in mice, plasma and brain
- Parameters: species or system mice (C57Bl/J6)
- Reported Conditions: mouse, brain; second study, PO doses of 1 and 5 mg/Kg once daily; read-out: estimated brain to plasma ratio
Readout Kind: Kp

Record summary for `Cc1cc(NCCCN(C)C)nc(NC(=O)Nc2ccc(Cl)c(Cl)c2)n1` : reported Kp = > 10

----------
- Tested on: Med-813 MB cell line
- Test Protocol: Cell viability, 7 days treatment, Med-813
- Assay type: cell-based
- Reported Conditions: Homo sapiens, 168 h; Med-813, 7 days
Readout Kind: IC50 (nM)
Value expressed in nM; do not type the unit.

Record summary for Cc1cc(NCCCN(C)C)nc(NC(=O)Nc2ccc(Cl)c(Cl)c2)n1 [CT-179] : reported IC50 = 965

----------
- Test Protocol: G-Smo GEM model of SHH-MB: tolerability, pharmacodynamics, survival
- Format: in vivo, mice
- Reported Conditions: mouse, in vivo, ip, EOD; read-out: maximum tolerated dose (MTD)
Readout Kind: MTD

Record summary for `Cc1cc(NCCCN(C)C)nc(NC(=O)Nc2ccc(Cl)c(Cl)c2)n1` : reported MTD = 80 mg/kg

These data points were gathered from paper PMC10275055.
